System: DIPGX37 (H3.3 K27M diffuse intrinsic pontine glioma line)
Assay: growth inhibition (% activity, log2 RLU normalised to DMSO / staurosporine); higher = more growth inhibition
Details: 33 µM
Measured growth inhibition of individual entries
value-kind: growth inhibition

Nc1nc2[nH]cc(CCc3ccc(C(=O)N[C@@H](CCC(=O)O)C(=O)O)cc3)c2c(=O)[nH]1	1.02%
CC1(C)S[C@@H]2[C@H](NC(=O)Cc3ccccc3)C(=O)N2[C@H]1C(=O)O	1.76%
C=CC[C@@H]1/C=C(\C)C[C@H](C)C[C@H](OC)[C@H]2O[C@@](O)(C(=O)C(=O)N3CCCC[C@H]3C(=O)O[C@H](/C(C)=C/[C@@H]3CC[C@@H](O)[C@H](OC)C3)[C@H](C)[C@@H](O)CC1=O)[C@H](C)C[C@@H]2OC	-1.52%
CCCCCCCCCC(=O)N[C@@H](Cc1c[nH]c2ccccc12)C(=O)N[C@@H](CC(N)=O)C(=O)N[C@@H](CC(=O)O)C(=O)N[C@@H]1C(=O)NCC(=O)N[C@@H](CCCN)C(=O)N[C@@H](CC(=O)O)C(=O)N[C@H](C)C(=O)N[C@@H](CC(=O)O)C(=O)NCC(=O)N[C@H](CO)C(=O)N[C@@H]([C@H](C)CC(=O)O)C(=O)N[C@@H](CC(=O)c2ccccc2N)C(=O)O[C@@H]1C	-1.3%
CCOC(=O)C1=C(C)NC(C)=C(C(=O)OCC)C1c1ccccc1/C=C/C(=O)OC(C)(C)C	-3.39%
O=C(O)CCCC[C@@H]1SC[C@@H]2NC(=O)N[C@@H]21	0.747%

Origin of the recorded values: the supplement of paper PMC8253809
